From: patent US20090253712A1

Assay: Solubility tests of active agent in solvent systems
Type: physicochemical
Settings: 3% polysorbate 60 in water, aqueous with cosolvent or surfactant or cyclodextrin, thermodynamic from solid, 3% polysorbate 60 in water; read-out: Solubilized miconazole ± S.D.
Parameter Measured: solubility (µg/mL)
Numeric only. Scale: µg/mL

Dear colleague, I am looking for the recorded solubility of the following molecule: Clc1ccc(COC(Cn2ccnc2)c2ccc(Cl)cc2Cl)c(Cl)c1 (stereo not shown)
1420

----------
Assay: Solubility tests of active agent in solvent systems
Assay type: physicochemical
Settings: 0.05 M ammonium acetate in water, pH 3.1, aqueous buffer, thermodynamic from solid, 0.05 M ammonium acetate pH 3.1 in water; read-out: Solubilized miconazole ± S.D.
Parameter Measured: solubility (µg/mL)
Numeric only. Scale: µg/mL

Dear colleague, I am looking for the recorded solubility of the following compound: Clc1ccc(COC(Cn2ccnc2)c2ccc(Cl)cc2Cl)c(Cl)c1 (stereo not shown)
2240

----------
Assay: Solubility tests of active agent in solvent systems
Format: physicochemical
Details: 0.1% polysorbate 80 + 20% ethanol + ammonium acetate pH 3.1, pH 3.1, aqueous with cosolvent or surfactant or cyclodextrin, thermodynamic from solid, Table 3: 0.1% polysorbate 80 + 20% ethanol + ammonium acetate pH 3.1; read-out: Solubilized miconazole ± S.D.
Parameter Measured: solubility (mg/mL)
Numeric only. Scale: mg/mL

Dear colleague, I am looking for the recorded solubility of the following compound: Clc1ccc(COC(Cn2ccnc2)c2ccc(Cl)cc2Cl)c(Cl)c1 (stereo not shown)
35.1

----------
Assay: Solubility tests of active agent in solvent systems
Format: physicochemical
Conditions: 3.0% polysorbate 80 + 25% ethanol + ammonium acetate pH 3.1, pH 3.1, aqueous with cosolvent or surfactant or cyclodextrin, thermodynamic from solid, Table 2: 3.0% polysorbate 80 + 25% ethanol + ammonium acetate pH 3.1; read-out: Solubilized miconazole ± S.D.
Parameter Measured: solubility
# include the unit after the value

Dear colleague, I am looking for the recorded solubility of the following compound: Clc1ccc(COC(Cn2ccnc2)c2ccc(Cl)cc2Cl)c(Cl)c1 (stereo not shown)
38.9 mg/mL

----------
Assay: Solubility tests of active agent in solvent systems
Format: physicochemical
Conditions: 25% ethanol in water, aqueous with cosolvent or surfactant or cyclodextrin, thermodynamic from solid, 25% ethanol in water; read-out: Solubilized miconazole ± S.D.
Parameter Measured: solubility (µg/mL)
Numeric only. Scale: µg/mL

Dear colleague, I am looking for the recorded solubility of the following molecule: Clc1ccc(COC(Cn2ccnc2)c2ccc(Cl)cc2Cl)c(Cl)c1 (stereo not shown) [miconazole]
21

----------
Assay: Solubility tests of active agent in solvent systems
Format: physicochemical
Settings: 60% propylene glycol in water, aqueous with cosolvent or surfactant or cyclodextrin, thermodynamic from solid, 60% propylene glycol in water; read-out: Solubilized miconazole ± S.D.
Parameter Measured: solubility (µg/mL)
Numeric only. Scale: µg/mL

Dear colleague, I am looking for the recorded solubility of the following molecule: Clc1ccc(COC(Cn2ccnc2)c2ccc(Cl)cc2Cl)c(Cl)c1 (stereo not shown) [miconazole]
360

----------
Quick reference for solubility among some compounds
Assay: Solubility tests of active agent in solvent systems
Assay type: physicochemical
Settings: 3% polysorbate 80 + 25% ethanol + ammonium acetate pH 3.1, pH 3.1, aqueous with cosolvent or surfactant or cyclodextrin, thermodynamic from solid, Table 5: 3% polysorbate 80 + 25% ethanol + ammonium acetate pH 3.1; read-out: Solubilized miconazole / ketoconazole / itraconazole ± S.D.
Numeric only. Scale: mg/mL

Use the examples below as a reference point.
- Compound: "CCC(C)n1ncn(-c2ccc(N3CCN(c4ccc(OCC5COC(Cn6cncn6)(c6ccc(Cl)cc6Cl)O5)cc4)CC3)cc2)c1=O (stereo not drawn)"
  Assay Result: 0.057
- Compound: "Clc1ccc(COC(Cn2ccnc2)c2ccc(Cl)cc2Cl)c(Cl)c1 (stereo not drawn)"
  Assay Result: 34.1

We now examine a further compound.
Dear colleague, I am looking for the recorded solubility of the following compound: CC(=O)N1CCN(c2ccc(OCC3COC(Cn4ccnc4)(c4ccc(Cl)cc4Cl)O3)cc2)CC1 (stereo not drawn)
139
